Where these numbers come from: ChEMBL document CHEMBL3227962

test system: L1210; assay: Antitumor activity against mouse L1210 cells allografted in C6D2F1 mouse at 100 to 1000 mg/kg, ip for 8 days starting from day 1 of challenge relative to control; conditions: dose mg/kg 100-1000; route intraperitoneal
# Lookup of reported T/C keyed by entry

>>> test_result("O=C(NO)c1ccc(O)cc1")
"124%"
>>> test_result("O=C(NO)c1ccc(O)cc1O")
"142%"
>>> test_result("Nc1ccccc1C(=O)NO")
"150%"
>>> test_result("O=C(NO)c1cc(O)ccc1O")
"130%"
>>> test_result("O=C(NO)c1ccc(O)c(O)c1")
"203%"

// query Given O=C(NO)c1cc(O)cc(O)c1 , state its recorded T/C.
// result 152%

// query Item NC(=O)NO [HYDROXYUREA] has what recorded T/C?
// result 162%

// query Consider the compound O=C(NO)c1ccccc1O [SALICYLHYDROXAMIC ACID] and give its measured T/C.
// result 147%

// query Consider the compound shown here: O=C(NO)c1cccc(O)c1 What is its recorded T/C?
// result 177%
